- target-of-assay: human LPA1 (Homo sapiens, UniProt Q92633)
- Sequence (Q92633 whole entry): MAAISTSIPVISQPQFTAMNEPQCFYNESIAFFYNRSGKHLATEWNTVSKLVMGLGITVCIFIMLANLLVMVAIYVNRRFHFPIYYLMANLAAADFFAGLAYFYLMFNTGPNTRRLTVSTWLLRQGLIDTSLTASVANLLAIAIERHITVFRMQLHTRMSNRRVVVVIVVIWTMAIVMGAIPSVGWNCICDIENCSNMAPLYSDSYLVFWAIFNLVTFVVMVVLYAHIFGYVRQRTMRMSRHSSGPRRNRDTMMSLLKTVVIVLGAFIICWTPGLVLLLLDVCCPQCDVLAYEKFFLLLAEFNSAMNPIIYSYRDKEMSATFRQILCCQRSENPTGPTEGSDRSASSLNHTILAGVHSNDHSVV
- test-description: LPA1 functional antagonist assay (calcium flux)
- measurement-setup: CHO cells overexpressing human LPA1; inhibition of calcium flux induced by 10 nM LPA; read-out: hLPA1 IC50
result-type: IC50 (nM)

Observe how each entry below is paired with its result.
compound: Cc1nc(-c2nnn(C)c2CNc2nccc(C(C)C)n2)ccc1O[C@H]1CCC[C@H](C(=O)O)C1
unit-info: nM
IC50: 10
--
compound: CCc1nc(CC)nc(NCc2c(-c3ccc(O[C@H]4CCC[C@H](C(=O)O)C4)cn3)nnn2C)n1
unit-info: nM
IC50: 789
--
compound: CCCN(C)c1nc(NCc2c(-c3ccc(O[C@H]4CCC[C@H](C(=O)O)C4)c(C)n3)nnn2C)ncc1F
unit-info: nM
IC50: 44
--
compound: Cc1nc(-c2nnn(C)c2COc2cc(N3CCCC3)ncn2)ccc1O[C@H]1CCC[C@H](C(=O)O)C1
unit-info: nM
IC50: 121

a. Cc1nc(-c2nnn(C)c2CNc2nccc(Oc3ccc(F)c(F)c3)n2)ccc1O[C@H]1CCC[C@H](C(=O)O)C1
b. CCSc1ccnc(NCc2c(-c3ccc(O[C@H]4CCC[C@H](C(=O)O)C4)c(C)n3)nnn2C)n1
IN: // pick min by IC50: a , b Provide the label of your selected option as the answer.
OUT: b
(b: 16 nM, a: 28 nM)

1. COc1cc(OCc2c(-c3ccc(O[C@H]4CCC[C@H](C(=O)O)C4)cn3)nnn2C)ncn1
2. CSc1ccnc(NCc2c(-c3ccc(O[C@H]4CCC[C@H](C(=O)O)C4)c(C)n3)nnn2C)n1
IN: Which record shows the lower IC50: the first, 1 , or the second, 2 ? Kindly give the label for the entry you pick.
OUT: 1
(1: 34 nM, 2: 187 nM)

I. Cc1nc(-c2nnn(C)c2CNc2ncc(F)c(NCC3CC3)n2)ccc1O[C@H]1CCC[C@H](C(=O)O)C1
II. CCOc1cc(NCc2c(-c3ccc(O[C@H]4CCC[C@H](C(=O)O)C4)c(C)n3)nnn2C)ncn1
IN: Lower value of IC50 belongs to which: I or II ? Your choice should be expressed through its label.
OUT: I
(I: 69 nM, II: 163 nM)

---

- target-of-assay: human LPA1 (Homo sapiens, UniProt Q92633)
- test-description: LPA1 functional antagonist assay (calcium flux)
- measurement-setup: CHO cells overexpressing human LPA1; inhibition of calcium flux induced by 10 nM LPA; read-out: hLPA1 IC50
result-type: IC50 (µM)

These recorded examples may help you get a feel for the data.
smiles-data: COc1cnc(NCc2c(-c3ccc(O[C@H]4CCC[C@H](C(=O)O)C4)c(C)n3)nnn2C)nc1C1CCC1
result-type: IC50
unit-info: µM
test-value: 0.106
--
smiles-data: CCOc1ccnc(N(C)Cc2c(-c3ccc(O[C@H]4CCC[C@H](C(=O)O)C4)c(C)n3)nnn2C)n1
result-type: IC50
unit-info: µM
test-value: 0.016
--
smiles-data: Cc1nc(-c2nnn(C)c2CNc2nnccc2OC2CC2)ccc1O[C@H]1CCC[C@H](C(=O)O)C1
result-type: IC50
unit-info: µM
test-value: 0.213
--
smiles-data: Cn1nnc(-c2ccc(O[C@H]3CCC[C@H](C(=O)O)C3)cn2)c1COc1cc(C(F)F)ncn1
result-type: IC50
unit-info: µM
test-value: 0.081
--
smiles-data: CCCOc1ccnc(Nc2c(-c3ccc(O[C@H]4CCC[C@H](C(=O)O)C4)cn3)nnn2C)n1
result-type: IC50
unit-info: µM
test-value: 0.225
--
smiles-data: CCc1nc(-c2nnn(C)c2CNc2nccc(C(C)(C)C)n2)ccc1O[C@H]1CCC[C@H](C(=O)O)C1
result-type: IC50
unit-info: µM
test-value: 0.041

I. Cc1nc(-c2nnn(C)c2CNc2cc(OC(F)(F)F)ccn2)ccc1O[C@H]1CCC[C@H](C(=O)O)C1
II. Cn1nnc(-c2ccc(O[C@H]3CCC[C@H](C(=O)O)C3)cn2)c1CNc1ccnc(OC2CC2)n1
IN: Which record would sort first by descending IC50, I or II ? Bench note: the answer is the label of the chosen record.
OUT: II
(II: 1.37 µM, I: 0.057 µM)

---

- target-of-assay: human LPA1 (Homo sapiens)
- Construct: expressed in transfected cells; host or cells: Chinese hamster ovary (CHO) cells
- test-description: LPA1 functional antagonist assay (calcium flux)
- Format: cell-based
- measurement-setup: CHO cells overexpressing human LPA1; inhibition of calcium flux induced by 10 nM LPA; read-out: hLPA1 IC50
pIC50: −log10 of the molar value.
result-type: pIC50

Worked cases, pIC50 given:
compound: Cc1nc(-c2nnn(C)c2CNc2nccc(C34CC(C3)C4)n2)ccc1O[C@H]1CCC[C@H](C(=O)O)C1 [Example 155]
test-value: 7.02
--
compound: CCc1ncnc(OCc2c(-c3ccc(O[C@H]4CCC[C@H](C(=O)O)C4)c(C)n3)nnn2C)c1C [Example 293]
test-value: 7.11
--
compound: CCc1cncc(OCc2c(-c3ccc(O[C@H]4CCC[C@H](C(=O)O)C4)c(C)n3)nnn2C)n1 [Example 300]
test-value: 7.51
--
compound: Cc1nc(-c2nnn(C)c2CN(C)c2nccc(OC3CC3)n2)ccc1O[C@H]1CCC[C@H](C(=O)O)C1 [Example 253]
test-value: 7.55
--
compound: Cc1nc(-c2nnn(C)c2CNc2ncccc2OC(F)(F)F)ccc1O[C@H]1CCC[C@H](C(=O)O)C1 [Example 119]
test-value: 6.10

A. Cc1nc(-c2nnn(C)c2COc2cc(-n3cnnc3C)ncn2)ccc1O[C@H]1CCC[C@H](C(=O)O)C1 [Example 314]
B. Cc1nc(-c2nnn(C)c2CNc2nccc(C3CC(F)C3)n2)ccc1O[C@H]1CCC[C@H](C(=O)O)C1 (stereo partly shown) [Example 156]
C. Cc1nc(-c2nnn(C)c2COc2cc(OC3CC3)ccn2)ccc1O[C@H]1CCC[C@H](C(=O)O)C1 [Example 276]
IN: Sort (3 compounds) by pIC50: min first. The labels, placed in the requested order, form the answer.
OUT: A, B, C

1. Cc1nc(-c2nnn(C)c2COc2cc(OC(C)C)ncn2)ccc1O[C@H]1CCC[C@H](C(=O)O)C1 [Example 290]
2. Cc1nc(-c2nnn(C)c2CNc2nccc(C(C)(C)O)n2)ccc1O[C@H]1CCC[C@H](C(=O)O)C1 [Example 153]
3. COc1cc(C(C)(C)C)nc(NCc2c(-c3ccc(O[C@H]4CCC[C@H](C(=O)O)C4)c(C)n3)nnn2C)n1 [Example 169]
4. Cc1nc(-c2nnn(C)c2COc2cc(C(F)(F)F)cc(C#N)n2)ccc1O[C@H]1CCC[C@H](C(=O)O)C1 [Example 288]
IN: Sort by pIC50, descending. Thanks in advance for listing the labels in the requested order.
OUT: 1, 3, 4, 2

P. CCCCc1ncnc(N(C)Cc2c(-c3ccc(O[C@H]4CCC[C@H](C(=O)O)C4)c(C)n3)nnn2C)n1 [Example 381]
Q. CCOc1cccc(Nc2c(-c3ccc(O[C@H]4CCC[C@H](C(=O)O)C4)cn3)nnn2C)n1 [Example 248]
IN: In the pair P and Q , the larger recorded pIC50 belongs to which? Answer = label.
OUT: P

---

- target-of-assay: human LPA1 (Homo sapiens, UniProt Q92633)
- test-description: LPA1 functional antagonist assay (calcium flux)
- measurement-setup: CHO cells overexpressing human LPA1; inhibition of calcium flux induced by 10 nM LPA; read-out: hLPA1 IC50
pIC50: −log10 of the molar value.
result-type: pIC50

Example entries begin here.
compound: Cc1nc(-c2nnn(C)c2CNc2cc(C(C)(C)C)ccn2)ccc1O[C@H]1CCC[C@H](C(=O)O)C1 [Example 150]
pIC50: 7.08
--
compound: Cc1nc(-c2nnn(C)c2COc2cccc(C(C)C)c2)ccc1O[C@H]1CCC[C@H](C(=O)O)C1 [Example 254]
pIC50: 8.23
--
compound: COc1ccccc1-c1ccnc(NCc2c(-c3ccc(O[C@H]4CCC[C@H](C(=O)O)C4)cn3)nnn2C)n1 [Example 36]
pIC50: 7.23
--
compound: Cc1nc(-c2nnn(C)c2COc2ccnc(C3CC3)n2)ccc1O[C@H]1CCC[C@H](C(=O)O)C1 [Example 282]
pIC50: 7.43

A. Cc1nc(-c2nnn(C)c2CNc2nccc(C(C)(C)F)n2)ccc1O[C@H]1CCC[C@H](C(=O)O)C1 [Example 132]
B. Cc1nc(-c2nnn(C)c2COc2cc(-n3ccnc3)ncn2)ccc1O[C@H]1CCC[C@H](C(=O)O)C1 [Example 359]
IN: Smaller pIC50 value, A vs B ? // respond with label for picked entry
OUT: B

---

- target-of-assay: human LPA1 (Homo sapiens, UniProt Q92633)
- test-description: LPA1 functional antagonist assay (calcium flux)
- measurement-setup: CHO cells overexpressing human LPA1; inhibition of calcium flux induced by 10 nM LPA; read-out: hLPA1 IC50
result-type: IC50 (nM)

smiles-data: Cc1nc(-c2nnn(C)c2CNc2cccc(C(C)C)n2)ccc1O[C@H]1CCC[C@H](C(=O)O)C1
unit-info: nM
IC50: 87
--
smiles-data: Cn1nnc(-c2ccc(O[C@H]3CCC[C@H](C(=O)O)C3)cn2)c1CNc1nccc(-c2ccccn2)n1
unit-info: nM
IC50: 39

I. CCCc1cccc(Nc2c(-c3ccc(O[C@H]4CCC[C@H](C(=O)O)C4)cn3)nnn2C)n1
II. CCCc1ccnc(Nc2c(-c3ccc(O[C@H]4CCC[C@H](C(=O)O)C4)cn3)nnn2C)n1
III. CCCc1cnnc(NCc2c(-c3ccc(O[C@H]4CCC[C@H](C(=O)O)C4)c(C)n3)nnn2C)c1
IN: In this exercise, place the 3 molecules in ascending sequence of their recorded IC50. Please write the labels in the order that was asked for.
OUT: I, III, II
